system: Escherichia coli TOP10; experiment: shrunken log2 fold change of peptide-encoding DNA abundance (4.5 h post-induction vs induction); higher = less antimicrobial activity (less host growth inhibition); settings: time post-induction: 4.5 h; library: site-saturation at positions 5, 18, 19, 20
Would you mind telling me the reported shrunken log2 fold change of each entry?
I only need the number, thanks.

Incoming: Return reported shrunken log2 fold change; argument: RRIRTRPPRLPRPRPRPCSGPRP
Outgoing: -0.307

Incoming: What do you get for RRIRNRPPRLPRPRPRPFAAPRP ?
Outgoing: 0.0928

Incoming: What do you get for RRIRYRPPRLPRPRPRPFKTPRP ?
Outgoing: -0.398

Incoming: What do you get for RRIRLRPPRLPRPRPRPWMQPRP ?
Outgoing: 0.0547

Incoming: What do you get for RRIRERPPRLPRPRPRPWKQPRP ?
Outgoing: -0.0582

Incoming: What do you get for RRIRFRPPRLPRPRPRPVTRPRP ?
Outgoing: -0.0263

Incoming: What do you get for RRIRCRPPRLPRPRPRPNWPPRP ?
Outgoing: 0.0717

Incoming: What do you get for RRIRKRPPRLPRPRPRPFTSPRP ?
Outgoing: 0.093

Incoming: What do you get for RRIRFRPPRLPRPRPRPGECPRP ?
Outgoing: -0.228

Incoming: What do you get for RRIRCRPPRLPRPRPRPEGQPRP ?
Outgoing: 0.788

Incoming: What do you get for RRIRPRPPRLPRPRPRPKIHPRP ?
Outgoing: -0.427

Incoming: What do you get for RRIRHRPPRLPRPRPRPLPSPRP ?
Outgoing: 0.393

Incoming: What do you get for RRIRHRPPRLPRPRPRPQFIPRP ?
Outgoing: -0.0365

Incoming: What do you get for RRIRCRPPRLPRPRPRPTHLPRP ?
Outgoing: 0.232

Incoming: What do you get for RRIRFRPPRLPRPRPRPYQMPRP ?
Outgoing: -0.0843

Incoming: What do you get for RRIRQRPPRLPRPRPRPLSSPRP ?
Outgoing: -0.055

Incoming: What do you get for RRIRPRPPRLPRPRPRPEMAPRP ?
Outgoing: 0.0664

Incoming: What do you get for RRIRSRPPRLPRPRPRPTALPRP ?
Outgoing: 0.14

Incoming: What do you get for RRIRCRPPRLPRPRPRPQQGPRP ?
Outgoing: 0.188

Incoming: What do you get for RRIRTRPPRLPRPRPRPKPLPRP ?
Outgoing: -0.0401

Incoming: What do you get for RRIRNRPPRLPRPRPRPSTYPRP ?
Outgoing: -0.318

Incoming: What do you get for RRIRCRPPRLPRPRPRPNYPPRP ?
Outgoing: -0.427

Incoming: What do you get for RRIRVRPPRLPRPRPRPVSQPRP ?
Outgoing: 0.051

Incoming: What do you get for RRIRCRPPRLPRPRPRPSKPPRP ?
Outgoing: -0.109

Incoming: What do you get for RRIRVRPPRLPRPRPRPEDNPRP ?
Outgoing: -0.184

Incoming: What do you get for RRIRMRPPRLPRPRPRPYGWPRP ?
Outgoing: 0.0956

====

Would you mind telling me the reported shrunken log2 fold change of each entry?
test system: Escherichia coli TOP10; assay: shrunken log2 fold change of peptide-encoding DNA abundance (4.5 h post-induction vs induction); higher = less antimicrobial activity (less host growth inhibition); settings: time post-induction: 4.5 h; library: site-saturation at positions 5, 18, 19, 20;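 note: peptides expressed intracellularly from a pBAD plasmid library in pooled LB shake-flask culture, induced with 0.3% L-arabinose, DNA abundance read by NGS, three biological replicates, DESeq2 with apeglm shrinkage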
I only need the number, thanks.

Incoming: Return reported shrunken log2 fold change; argument: RRIRGRPPRLPRPRPRPRPAPRP
Outgoing: 1.07

Incoming: What do you get for RRIRWRPPRLPRPRPRPNWSPRP ?
Outgoing: -0.0695

Incoming: What do you get for RRIRQRPPRLPRPRPRPVPEPRP ?
Outgoing: 0.203

Incoming: What do you get for RRIRRRPPRLPRPRPRPELSPRP ?
Outgoing: 0.0649

Incoming: What do you get for RRIRARPPRLPRPRPRPPHSPRP ?
Outgoing: 0.902

Incoming: What do you get for RRIRPRPPRLPRPRPRPYLIPRP ?
Outgoing: -0.445

Incoming: What do you get for RRIRIRPPRLPRPRPRPFRWPRP ?
Outgoing: -0.00968

Incoming: What do you get for RRIRGRPPRLPRPRPRPMARPRP ?
Outgoing: 0.318

Incoming: What do you get for RRIRLRPPRLPRPRPRPAWWPRP ?
Outgoing: 0.173

Incoming: What do you get for RRIRYRPPRLPRPRPRPQVLPRP ?
Outgoing: -0.725

Incoming: What do you get for RRIRRRPPRLPRPRPRPPLDPRP ?
Outgoing: 1.24

Incoming: What do you get for RRIRSRPPRLPRPRPRPPLTPRP ?
Outgoing: 0.367

Incoming: What do you get for RRIRYRPPRLPRPRPRPFKMPRP ?
Outgoing: -0.673

Incoming: What do you get for RRIRARPPRLPRPRPRPIELPRP ?
Outgoing: 0.00186

Incoming: What do you get for RRIRDRPPRLPRPRPRPIMDPRP ?
Outgoing: 0.308

Incoming: What do you get for RRIRFRPPRLPRPRPRPANFPRP ?
Outgoing: 0.151

Incoming: What do you get for RRIRVRPPRLPRPRPRPTRSPRP ?
Outgoing: 0.17

Incoming: What do you get for RRIRMRPPRLPRPRPRPTAAPRP ?
Outgoing: 2.79

Incoming: What do you get for RRIRMRPPRLPRPRPRPGFRPRP ?
Outgoing: 0.525

Incoming: What do you get for RRIRDRPPRLPRPRPRPCLRPRP ?
Outgoing: -0.188
